Origin of the recorded values: patent US10174053B2

Tested on: A. baumannii JMI7
EXPERIMENTAL PROTOCOL: In vitro antimicrobial activity, MIC by broth microdilution (CLSI)
Format: cell-based
COND: Acinetobacter baumannii, JMI7; PER-1, OXA-23, 51, ESBL and OXA-type carbapenemase producing strain; 5×10^5 cfu/mL; cation-adjusted Iso-Sensitest broth containing human Apo-transferrin; read-out: Minimum Inhibitory Concentration (MIC) A. baumannii JMI:7
MEASUREMENT KIND: MIC (µg/mL)
Express the result in µg/mL but write the number alone.

Qu. Consider the molecule C[C@@H]1S[C@@H]2[C@H](NC(=O)/C(=N\OC(C)(C)C(=O)[O-])c3csc(N)n3)C(=O)N2C(C(=O)[O-])=C1C[N+]12CCC(CNN3C(=O)c4cc(O)c(O)c(Cl)c4C3=O)(CC1)CC2.[Na+] and give its measured MIC.
Ans. 0.5

Qu. Looking for the measured MIC of CC[N+](CC)(CCNC(=O)c1ccc(O)c(O)c1Cl)CC1=C(C(=O)O)N2C(=O)[C@@H](NC(=O)/C(=N\OC(C)(C)C(=O)[O-])c3csc(N)n3)[C@H]2S[C@H]1C , can you help?
Ans. 1

Qu. Sample C[C@@H]1S[C@@H]2[C@H](NC(=O)/C(=N\OC(C)(C)C(=O)[O-])c3csc(N)n3)C(=O)N2C(C(=O)[O-])=C1C[N+]12CCC(CC1)N(C(=O)c1cc(O)c(O)c(Cl)c1)CC2.[Na+] — what was its MIC?
Ans. 0.5

Qu. Report MIC for C[C@@H]1S[C@@H]2[C@H](NC(=O)/C(=N\OC(C)(C)C(=O)[O-])c3csc(N)n3)C(=O)N2C(C(=O)[O-])=C1C[N+]12CCC(CNC(=O)c3cc(O)c(O)c(F)c3)(CC1)CC2.[Na+] please.
Ans. 1

Qu. I have this molecule here, C[C@@H]1S[C@@H]2[C@H](NC(=O)/C(=N\OC(C)(C)C(=O)[O-])c3csc(N)n3)C(=O)N2C(C(=O)O)=C1C[N+]1(CCON2C(=O)c3cc(O)c(O)cc3C2=O)CCCC1 , and I need its recorded MIC.
Ans. 0.5

---

System: A. baumannii JMI7
EXPERIMENTAL PROTOCOL: In vitro antimicrobial activity, MIC by broth microdilution (CLSI)
Format: cell-based
COND: Acinetobacter baumannii, JMI7; PER-1, OXA-23, 51, ESBL and OXA-type carbapenemase producing strain; 5×10^5 cfu/mL; cation-adjusted Iso-Sensitest broth containing human Apo-transferrin; read-out: Minimum Inhibitory Concentration (MIC) A. baumannii JMI:7
MEASUREMENT KIND: MIC (µg/mL)
The answer is to be given in µg/mL; state only the numeric part.

Qu. Look up MIC for this compound: C[C@@H]1S[C@@H]2[C@H](NC(=O)/C(=N\O[C@@H](CC(=O)[O-])C(=O)[O-])c3csc(N)n3)C(=O)N2C(C(=O)[O-])=C1C[N@+]1(C)[C@@H]2CC[C@H]1C[C@@H](NC(=O)C(=O)c1cc(O)c(O)c(Cl)c1)C2.[Na+].[Na+] [Compound I-13]
Ans. 2

Qu. Which MIC value is on record for C[C@@H]1S[C@@H]2[C@H](NC(=O)/C(=N\OC(C)(C)C(=O)O)c3csc(N)n3)C(=O)N2C(C(=O)[O-])=C1C[N+]12CCC(Cn3ncc4cc(O)c(O)cc4c3=O)(CC1)CC2 [Compound I-124] ?
Ans. 0.5

Qu. Fill blank: measured MIC of the compound C[C@@H]1S[C@@H]2[C@H](NC(=O)/C(=N\OC(C)(C)C(=O)[O-])c3csc(N)n3)C(=O)N2C(C(=O)[O-])=C1C[N+]12CCC(Cn3ncc4c(Cl)c(O)c(O)cc4c3=O)(CC1)CC2.[Na+] [Compound I-113] is ____.
Ans. 0.25

Qu. # get_value(readout='MIC', item= C[C@@H]1S[C@@H]2[C@H](NC(=O)/C(=N\OC(C)(C)C(=O)O)c3csc(N)n3)C(=O)N2C(C(=O)[O-])=C1C[N+]12CCC(CC1)N(C(=O)c1cn(C)c3cc(O)c(O)c(Cl)c3c1=O)CC2 [Compound I-160] )
Ans. 0.25
